# System: PAD
# assay comment: qHTS profiling for inhibitors of Plasmodium falciparum proliferation (AID 504749); further: nearly all actives have a fitted effect of over 60% in size
# particulars: P. falciparum in erythrocytes, SYBR Green DNA, 72 h; series mostly up to 28.7 µM
Records with an inconclusive call do not appear. Active and inactive are the calls of the source. The call rests on the fitted dose curve; in most records, active means well fitted inhibition curve with a large enough effect; inconclusive means small, poorly fitted or top-dose-only effect; inactive means flat fitted curve, though single readings scatter.
Give your call using only these classes: 1 (active), -1 (inactive)

Q: Kindly provide the recorded test outcome for the following compound: "Cc1ccnc2c1NC(=O)c1cccnc1N2C1CC1"
Ans: -1

Q: Kindly provide the recorded test outcome for the following compound: "COc1ncnc(NS(=O)(=O)c2ccc(N)cc2)c1OC"
Ans: -1

Q: Kindly provide the recorded test outcome for the following compound: "Cc1cccc(N(C)C(=S)Oc2ccc3ccccc3c2)c1"
Ans: -1

Q: Kindly provide the recorded test outcome for the following compound: "COC(=O)Nc1nc2ccc(C(=O)c3ccccc3)cc2[nH]1"
Ans: -1

Q: Kindly provide the recorded test outcome for the following compound: "NC(=O)N1c2ccccc2CC(=O)c2ccccc21"
Ans: -1

Q: Kindly provide the recorded test outcome for the following compound: "CCCCCCNC(=O)n1cc(F)c(=O)[nH]c1=O"
Ans: 1

Q: Kindly provide the recorded test outcome for the following compound: "CC1=NN(c2ccccc2)C(=O)C1"
Ans: -1
